# target.entity: Adenosine receptor A1 (Homo sapiens, UniProt P30542)
# Sequence (P30542 whole entry): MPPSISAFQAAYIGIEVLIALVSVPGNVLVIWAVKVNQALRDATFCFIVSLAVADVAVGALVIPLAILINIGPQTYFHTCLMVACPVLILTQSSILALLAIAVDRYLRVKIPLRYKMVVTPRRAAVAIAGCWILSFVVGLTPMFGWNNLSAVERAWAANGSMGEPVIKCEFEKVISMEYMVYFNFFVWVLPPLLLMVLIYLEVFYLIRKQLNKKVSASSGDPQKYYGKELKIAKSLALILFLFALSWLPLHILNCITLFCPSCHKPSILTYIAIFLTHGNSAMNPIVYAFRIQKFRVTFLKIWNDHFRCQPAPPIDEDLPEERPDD
pKi: −log10 of the molar value.
Before we begin, note that these pKi values for Adenosine receptor A1 (Homo sapiens, UniProt P30542) originate from several publications.
reported.metric: pKi

Some entries whose results are on file:
CNC(=O)[C@H]1O[C@@H](n2cnc3c(NC)nc(C#Cc4ccc(F)s4)nc32)[C@H](O)[C@@H]1O; 6.36
CNC(=O)[C@H]1O[C@@H](n2cnc3c(N)nc(C#Cc4ccccc4)nc32)[C@H](O)[C@@H]1O; 5.41
Nc1cc(-c2ccco2)c2oc(-c3ccco3)nc2c1; 8.11
COc1cccc(CNc2nc(N)c3nc(-c4ccc(C)o4)sc3n2)c1; 7.15

a: Cn1cc2c(nc(N3CCCC3)n3nc(-c4ccco4)nc23)n1
b: COc1ccc(C(=O)Nc2nc(-c3ccccc3)c(C(=O)c3ccccc3)s2)cc1
c: CCn1c(/N=C/c2ccc(Br)cc2)c(C#N)sc1=S
d: CC(C)C(=O)Nc1nc2n(n1)C(c1ccccc1Cl)C=C(c1ccccc1)N2 (configuration not stated)
e: CCCn1cc2c(nc(NC(=O)C(c3ccccc3)c3ccccc3)n3nc(-c4ccco4)nc23)n1
Input: # rank by pKi, ascending (min first) Put the labels in the requested order and write them down.
Output: d, a, e, b, c

I: Nc1nc(-c2ccco2)cn2cc(-c3ccco3)nc12
II: Cc1nc(NC(=O)c2ccccc2)c2nc(-c3ccccc3)sc2n1
III: Cc1ccc(-c2nc(N)c3nn(-c4ccccc4)cc3n2)o1
Input: Arrange these 3 compounds in increasing order of pKi. Please respond by ranking the labels in the order requested.
Output: II, I, III

A: Cc1ccc(Nc2nc(N(C)C)c(C(=O)Nc3sc4c(c3C(N)=O)CCCC4)s2)cc1
B: CCCCn1cc2c(nc(NC(=O)C(c3ccccc3)c3ccccc3)n3nc(-c4ccco4)nc23)n1
C: N#Cc1c(N)nc(SCc2csc(-c3ccccc3)n2)nc1-c1ccc2c(c1)OCO2
D: COc1ccc(-c2nc3cnc4ccc(C)cc4n3n2)cc1
Input: Rank the items in ascending order with respect to pKi. To answer, arrange all of the labels according to the requested order.
Output: A, D, B, C
(A: 4.49, D: 5.70, B: 6.89, C: 8.62)

1: Cc1cc(C)n(-c2cc(NC(=O)CN3CCCC3)nc(-c3ccc(C)o3)n2)n1
2: O=C(Nc1ccc(-c2ccncc2)c(-c2ccccn2)n1)C1CC1
Input: Which one would you say has the larger pKi value: 1 , or 2 ? Pick one; state its label.
Output: 1
(1: 6.46, 2: 6.03)

P: COc1cccc(CNC(=O)c2cc(-c3ccco3)nc(N)n2)c1
Q: Cn1nccc1-c1cccc2c(C(=O)NCc3cccc4cccnc34)nc(N)nc12
Input: Of P and Q , which one carries the higher reported pKi? Please indicate the selected item by its label.
Output: P
(P: 7.33, Q: 5.22)

1: N#Cc1c(N)nc(SCc2ncc[nH]2)nc1-c1ccccc1
2: COc1ccccc1CNC(=O)c1cc(Nc2ccccc2C)nc2ccccc12
3: Nc1ncnc2c1nc(Br)n2C1CCC1
Input: Task for the reader: rank each entry by its pKi, from the minimum upward. Submit the labels in the order that the ranking request calls for.
Output: 3, 2, 1
(3: 5.66, 2: 5.95, 1: 7.07)

1: OCCNc1nc(-c2nccs2)c2sccc2n1
2: N#Cc1c(N)nc(SCCO)c(C#N)c1-c1ccc(OC(F)F)cc1
Input: Which of the two gives a bigger number for pKi: 1 or 2 ? Response format: the label of the selected entry.
Output: 2
(2: 7.47, 1: 7.24)

a: CCCn1c(=O)c2c(nc3cc(C(C)(C)C)ccn32)n(Cc2ccccc2)c1=O
b: N#Cc1c(N)nc(SCCO)c(C#N)c1-c1ccc(C(F)(F)F)cc1
Input: I'm curious whether a or b has the smaller pKi number. Which is it? To answer, give the label that identifies your chosen option.
Output: a
